B1: Hairpin Ribozyme (parent)
chain: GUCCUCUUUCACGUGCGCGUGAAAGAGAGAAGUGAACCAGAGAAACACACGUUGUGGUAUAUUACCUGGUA

# Variants of: B1
# protocol details: self-cleavage, relative activity (ratio to wild type); higher = more cleavage; co-transcriptional
Property: self-cleavage; scope: individual variants
Keep the answer to the number alone.

Worked examples follow.
>>> recorded_value("GUCCUCUUUCACGGGCGCGUGAAAGAGAGAUGUGAACCAGAGAAACACACGUUGUGGUAUAUUACCUGGUA")
0.119
>>> recorded_value("GUCCUCUUUCAAGUGCGCGUGAAAGAGAGAAGAGAACCAGAGAAACACACGUUGUGGUAUAUUACCUGGUA")
0.158
>>> recorded_value("GUCCUCUUUCACGUGCGCGUGAAAGAGAGAAGUGAUCCAGAGAAACACACGAUGUGGUAUAUUACCUGGUA")
0.303
>>> recorded_value("GUCCUCUUUCACUUGCGCGUGAAAGAGAGAAGCGAACCAGAGAAACACACGUUGUGGUAUAUUACCUGGUA")
0.102

Item: GUCCUCUUUCACGUGCGCGUGAAAGAGAGAAGUGAACCAGAGAAACACACGUUAUGGUAUAUUACCUGUUA | self-cleavage: 0.143

response.value for GUCCUCUUUCACGUGCGCGUGAAAGAGAGAACUGAACCAGAGAAACACACGUUGUGGUACAUUACCUGGUA (field: self-cleavage) = 0.0463

Sample GUCCUCUUUCACGUUCGCGUGAAAGAGAGAAGUGAACCAGAGAAACACACGUUGUAGUAUAUUACCUGGUA ; self-cleavage observed: 0.187
